Consider the following sequences; for each one, report its PBM binding z-score.
- Test system: PPARg DBDmut:RXRa IVT, anti-PPARg (DBD mutation: PPARg1 K132A/R137A, NR concentration 270 nM, RXRa partner concentration 90 nM)
- experiment: PBM binding z-score (relative to random genomic background probes); higher = stronger binding; sequences stand for … in GC…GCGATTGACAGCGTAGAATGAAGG
One number for each entry.

Please review the entries below; each comes with its answer.
1. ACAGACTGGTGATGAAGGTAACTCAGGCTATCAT :: 0.194
2. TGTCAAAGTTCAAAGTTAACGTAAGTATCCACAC :: 1.16
3. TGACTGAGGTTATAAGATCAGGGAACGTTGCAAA :: -0.045
4. ATCTCTAGGGAACCAAGTTCAGTGAATGCCGAAC :: 0.0886
5. GTACCAAGGTGAATAGGTCTTTGATGAGTAGGCG :: 0.818
6. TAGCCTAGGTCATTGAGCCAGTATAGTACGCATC :: 0.454
7. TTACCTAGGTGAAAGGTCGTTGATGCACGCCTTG :: 1.6
8. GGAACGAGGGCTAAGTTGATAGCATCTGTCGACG :: 0.146

// for each sequence in input: emit PBM binding z-score
1. GGAACGAGTGCATTCGAGTTGATAGCATGGCGAT
2. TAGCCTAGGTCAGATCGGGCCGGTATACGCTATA
3. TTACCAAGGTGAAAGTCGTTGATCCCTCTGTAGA
4. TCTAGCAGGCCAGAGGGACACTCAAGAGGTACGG
5. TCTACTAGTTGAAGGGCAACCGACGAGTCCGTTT

Return:
[-1.05, -0.27, 0.179, -1.54, 0.093]

Dear colleague, could you send me PBM binding z-score for each of the items below? Thanks.
1. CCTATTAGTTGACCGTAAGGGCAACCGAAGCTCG
2. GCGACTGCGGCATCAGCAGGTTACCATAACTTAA
3. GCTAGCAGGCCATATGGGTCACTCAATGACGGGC
4. TCTAGCAGGCCAGAGGATCACTCAAGAGGTACGG

Return:
1. 0.0839
2. -1.23
3. -0.447
4. -0.802

Hello, I would appreciate it if you could give PBM binding z-score for each entry below.
1. TCTGCTAGGTCAACGATGCTCAGCTAATCTGCTA
2. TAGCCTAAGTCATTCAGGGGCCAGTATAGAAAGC
3. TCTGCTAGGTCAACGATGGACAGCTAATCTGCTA
4. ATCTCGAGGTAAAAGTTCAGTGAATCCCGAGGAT

Return:
1. 0.146
2. 0.0399
3. 1.56
4. 0.38

Quick one: give me PBM binding z-score for each item below, same order please.
1. ACTATTAGTGGAGACGAGGGCAACCGATAGGTTG
2. TTACCAAGGTGAAAGGTCGTTGATGCACGCCTTG

Return:
1: 0.383; 2: 0.117

###

- Tested on: PPARg DBDmut IVT, anti-PPARg (DBD mutation: PPARg1 K132A/R137A, NR concentration 270 nM)
- experiment: PBM binding z-score (relative to random genomic background probes); higher = stronger binding; sequences stand for … in GC…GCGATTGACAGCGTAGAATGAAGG
reported property: PBM binding z-score
Answers are plain numbers.

1) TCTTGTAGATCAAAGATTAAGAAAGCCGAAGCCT :: 0.404
2) AATGCAGGGTCATCGTAGGCCAGAGTACGCACAG :: 1.66
3) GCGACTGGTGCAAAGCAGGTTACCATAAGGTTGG :: -1.22

Provide PBM binding z-score values for the following items, in order.
1. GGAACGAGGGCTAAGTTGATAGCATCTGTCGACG
2. ATACCTAGGTGATCGTGAGGTCGTTGATACTAAC

Return:
[-0.476, 0.924]

Values were extracted from the supplement of paper PMC6555819.
